Ref: ChEMBL document CHEMBL3585240

Experiment: Selectivity index, ratio of IC50 for human skin fibroblasts to IC50 for promastigote stage of Leishmania mexicana Bel21
reported_property: Ratio IC50
Please give only the number in your answer, with no unit.

Solved entries (count: 2):
compound_string=C=C1C(=O)[C@@]23CC[C@H](C(=C)C)[C@@](C)(CCC(=O)OC(C)C)[C@@H]2CC[C@H]1C3 reported_result=5
compound_string=C=C1C(=O)[C@@]23CC[C@H](C(=C)C)[C@@](C)(CCC(=O)OCCC)[C@@H]2CC[C@H]1C3 reported_result=4.1

Next item in the queue.
Query (compound): C=C1C(=O)[C@@]23CC[C@H](C(=C)C)[C@@](C)(CCC(=O)O)[C@@H]2CC[C@H]1C3 ; field requested: Ratio IC50
1.3
